# target-or-system: C-X-C chemokine receptor type 2 (Homo sapiens)
# test-summary: Displacement of [125I]IL8 from human recombinant CXCR2 expressed in CHO cells
endpoint-name: pIC50
Answers are plain numbers, as −log10 of the molar value.

smiles-code	pIC50
O=C(c1c(Cl)ccc(Nc2c(Nc3ccccc3Br)c(=O)c2=O)c1O)N1CCCC1	7.55
O=c1c(O)c(Nc2ccc([N+](=O)[O-])cc2O)/c1=N/c1ccccc1	7.66

Need pIC50 for each of these molecules.
1. O=c1c(Nc2ccc([N+](=O)[O-])cc2O)c(Nc2ccccc2Br)c1=O
2. Cc1ccccc1Nc1c(Nc2ccc(C)c(S(=O)(=O)N(C)C)c2O)c(=O)c1=O
3. CN1CCCN(S(=O)(=O)c2c(Cl)ccc(Nc3c(Nc4ccccc4Br)c(=O)c3=O)c2O)CC1.Cl
4. CCCc1ccccc1Nc1c(Nc2ccc(Cl)c(S(=O)(=O)N3CCN(CC)CC3)c2O)c(=O)c1=O.O=C(O)C(F)(F)F

[7.43, 7.82, 8.00, 8.10]

Using the record for O=c1c(Nc2ccccc2)c(Nc2cc(Cl)c([N+](=O)[O-])cc2O)c1=O , report its pIC50.
7.28

* * *

# test-summary: Aqueous solubility in phosphate buffer at pH 7.4
# Format: physicochemical
Use 90 µM as the dividing line for solubility, with the line itself on the MET side and lower values as NOT MET.

smiles-code	label
Cl.O=c1c(Nc2ccccc2)c(Nc2ccc(Cl)c(S(=O)(=O)N3CCC(N4CCCCC4)CC3)c2O)c1=O	NOT MET

Has CN1CCCN(S(=O)(=O)c2c(Cl)ccc(Nc3c(Nc4ccccc4Cl)c(=O)c3=O)c2O)CC1.Cl a recorded solubility greater than or equal to 90 µM?
MET

Has CN1CCN(C(=O)c2cccc(Nc3c(Nc4ccccc4)c(=O)c3=O)c2O)CC1.O=C(O)C(F)(F)F a recorded solubility greater than or equal to 90 µM?
MET

Has CN1CCN(S(=O)(=O)c2c(F)ccc(Nc3c(Nc4ccccc4Br)c(=O)c3=O)c2O)CC1.O=C(O)C(F)(F)F a recorded solubility greater than or equal to 90 µM?
NOT MET

Has CCCc1ccccc1Nc1c(Nc2ccc(Cl)c(S(=O)(=O)N3CCN(CC)CC3)c2O)c(=O)c1=O.O=C(O)C(F)(F)F a recorded solubility greater than or equal to 90 µM?
NOT MET

Has O=C(c1cccc(Nc2c(Nc3ccccc3C(F)(F)F)c(=O)c2=O)c1O)N1CCCC1 a recorded solubility greater than or equal to 90 µM?
NOT MET

Has COCCNS(=O)(=O)c1c(Cl)ccc(Nc2c(Nc3ccccc3)c(=O)c2=O)c1O a recorded solubility greater than or equal to 90 µM?
NOT MET

Has CN1CCCN(S(=O)(=O)c2c(Cl)ccc(Nc3c(Nc4ccccc4Br)c(=O)c3=O)c2O)CC1.Cl a recorded solubility greater than or equal to 90 µM?
MET

* * *

# test-summary: Clearance in Sprague-Dawley rat at 4 umol/kg, iv and 8 umol/kg, po
# Type: ADME, organism-based
# settings: in vivo
endpoint-name: clearance (mL/min/kg)
One number for each entry, in mL/min/kg.

Consider the worked cases shown below.
smiles-code	endpoint-name	measured
COCCNS(=O)(=O)c1c(Cl)ccc(Nc2c(Nc3ccccc3)c(=O)c2=O)c1O	clearance	0.6
CN1CCCN(S(=O)(=O)c2c(Cl)ccc(Nc3c(Nc4ccccc4Cl)c(=O)c3=O)c2O)CC1.Cl	clearance	4
CCCc1ccccc1Nc1c(Nc2ccc(Cl)c(S(=O)(=O)N3CCN(CC)CC3)c2O)c(=O)c1=O.O=C(O)C(F)(F)F	clearance	7
Cl.O=c1c(Nc2ccccc2)c(Nc2ccc(Cl)c(S(=O)(=O)N3CCC(N4CCCCC4)CC3)c2O)c1=O	clearance	1.2

Using the record for N#Cc1ccc(Nc2c(Nc3ccccc3Br)c(=O)c2=O)c(O)c1 , report its clearance.
15

* * *

# target-or-system: C-X-C chemokine receptor type 2 (Homo sapiens, UniProt P25025)
# Sequence (P25025 whole entry): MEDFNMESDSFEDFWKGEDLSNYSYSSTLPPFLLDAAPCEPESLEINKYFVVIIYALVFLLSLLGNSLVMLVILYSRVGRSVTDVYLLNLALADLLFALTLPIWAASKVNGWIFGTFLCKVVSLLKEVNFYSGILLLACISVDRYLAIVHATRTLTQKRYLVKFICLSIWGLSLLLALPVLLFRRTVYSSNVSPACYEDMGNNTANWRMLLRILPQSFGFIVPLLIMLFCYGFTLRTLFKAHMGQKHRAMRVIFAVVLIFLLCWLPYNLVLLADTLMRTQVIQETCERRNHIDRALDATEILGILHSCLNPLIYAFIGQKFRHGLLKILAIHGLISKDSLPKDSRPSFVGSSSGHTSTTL
# test-summary: Displacement of [125I]IL8 from human recombinant CXCR2 expressed in CHO cells
Note to self: IC50 under 30 nM means MET, ties and anything higher get NOT MET.

smiles-code	label
Cc1ccc(Nc2c(Nc3ccccc3)c(=O)c2=O)c(O)c1	NOT MET
O=c1c(Nc2ccccc2)c(Nc2cc(Cl)ccc2O)c1=O	NOT MET
COCCNS(=O)(=O)c1c(Cl)ccc(Nc2c(Nc3ccccc3)c(=O)c2=O)c1O	MET

Take the compound CN1CCCN(S(=O)(=O)c2c(Cl)ccc(Nc3c(Nc4ccccc4Cl)c(=O)c3=O)c2O)CC1.Cl and say whether its IC50 is less than 30 nM.
MET

Take the compound O=C(Nc1ccccc1O)Nc1ccccc1Br and say whether its IC50 is less than 30 nM.
NOT MET

Take the compound NC(=O)c1c(Cl)ccc(Nc2c(Nc3ccccc3)c(=O)c2=O)c1O and say whether its IC50 is less than 30 nM.
MET

Take the compound O=c1c(O)c(Nc2ccccc2)/c1=N/c1ccccc1O and say whether its IC50 is less than 30 nM.
NOT MET

Take the compound N#Cc1ccc(Nc2c(O)c(=O)/c2=N\c2ccccc2)c(O)c1 and say whether its IC50 is less than 30 nM.
MET

Take the compound N#Cc1cccc(Nc2c(Nc3ccccc3)c(=O)c2=O)c1O and say whether its IC50 is less than 30 nM.
NOT MET

Take the compound O=c1c(Nc2ccccc2O)c(Nc2ccccc2Br)c1=O and say whether its IC50 is less than 30 nM.
NOT MET

Take the compound Cc1cccc(O)c1NC(=O)Nc1ccccc1 and say whether its IC50 is less than 30 nM.
NOT MET

Take the compound Cc1ccc(O)c(Nc2c(Nc3ccccc3)c(=O)c2=O)c1 and say whether its IC50 is less than 30 nM.
NOT MET

Take the compound O=C(Nc1ccccc1)Nc1c(O)cccc1[N+](=O)[O-] and say whether its IC50 is less than 30 nM.
NOT MET

Take the compound O=c1c(Nc2ccc(Cl)cc2O)c(Nc2ccccc2Br)c1=O and say whether its IC50 is less than 30 nM.
NOT MET

Take the compound O=C(Nc1ccccc1)Nc1ccccc1O and say whether its IC50 is less than 30 nM.
NOT MET

Take the compound O=C(Nc1ccccc1)Nc1cc(Cl)ccc1O and say whether its IC50 is less than 30 nM.
NOT MET
